# Test system: MKL-2
# protocol-text: qHTS assay to identify novel small-molecules to repurpose for Merkel cell carcinoma treatment (AID 1296009); further: nearly all actives have a fitted effect of over 60% in size
# condition-info: MCC and control cell lines, CellTiter-Glo viability, 72 h; series mostly up to 46 µM
Inconclusive results are not listed. Activity calls are given as the source filed them. The call rests on the fitted dose curve; in most records, active means well fitted inhibition curve with a large enough effect; inconclusive means small, poorly fitted or top-dose-only effect; inactive means flat fitted curve, though single readings scatter.
Outcome codes: true (1) for active, false (0) for inactive

# compound, label-value
measured = [
    ("NC[C@H]1O[C@H](O[C@H]2[C@H](O)[C@@H](O[C@H]3O[C@H](CO)[C@@H](O)[C@H](N)[C@H]3O)[C@H](N)C[C@@H]2N)[C@H](N)[C@@H](O)[C@@H]1O", "false (0)"),
    ("COc1ccc(OC)c(C(O)CNC(=O)CN)c1 (stereo not drawn)", "false (0)"),
    ("CC(=O)Oc1ccc(C(=C2CCCCC2)c2ccc(OC(C)=O)cc2)cc1", "false (0)"),
    ("CC[N+](CC)(CCNC(=O)C(=O)NCC[N+](CC)(CC)Cc1ccccc1Cl)Cc1ccccc1Cl", "false (0)"),
    ("O=C(CCN1CCC(c2ccccc2)C1)c1ccc2c(c1)OCCO2 (stereo not drawn)", "true (1)"),
    ("Cc1c(F)c(N2CCNC(C)C2)cc2c1c(=O)c(C(=O)O)cn2C1CC1 (stereo not drawn)", "false (0)"),
    ("CC(=O)OCC(=O)[C@@]1(O)[C@H](C)C[C@H]2[C@@H]3CCC4=CC(=O)C=C[C@]4(C)[C@@]3(F)[C@@H](O)C[C@@]21C", "false (0)"),
    ("CCN(CC)CCOc1ccc(C(O)(Cc2ccc(Cl)cc2)c2ccc(C)cc2)cc1 (stereo not drawn)", "true (1)"),
    ("CC1=C(C(=O)O)N2C(=O)[C@@H](NC(=O)[C@H](N)c3ccc(O)cc3)[C@H]2SC1", "false (0)"),
    ("Cc1c(C)n(CCN(C)C)c2ccc(C(=O)OCCN(C)C)cc12", "false (0)"),
    ("C[C@H]1[C@H](NC(=O)/C(=N/OC(C)(C)C(=O)O)c2csc(N)n2)C(=O)N1S(=O)(=O)O (stereo in doubt)", "false (0)"),
    ("CC[C@@H](CO)NCCN[C@@H](CC)CO", "false (0)"),
    ("CCCCS(=O)(=O)N[C@@H](Cc1ccc(OCCCCC2CCNCC2)cc1)C(=O)O", "false (0)"),
    ("CN1[C@@H]2CC[C@H]1CC(OC(=O)c1c[nH]c3ccccc13)C2 (stereo partly drawn)", "false (0)"),
    ("C#C[C@]1(O)CC[C@H]2[C@@H]3CCC4=CC(=O)CC[C@@H]4[C@H]3CC[C@@]21C", "false (0)"),
    ("C[C@@H]1C[C@H]2[C@@H]3CCC4=CC(=O)C=C[C@]4(C)[C@@]3(F)[C@@H](O)C[C@]2(C)[C@H]1C(=O)CO", "false (0)"),
    ("COC(=O)[C@@H]1CC2=CC(=O)CC[C@]2(C)[C@@]23O[C@@H]2C[C@@]2(C)[C@@H](CC[C@@]24CCC(=O)O4)[C@H]13", "false (0)"),
    ("CC(C)COC(=O)c1ccc(N)cc1", "false (0)"),
]

The values you see were collected from PubChem BioAssay (NCATS).
